The measured values listed here are drawn from patent US20220064302A1.

Listing: koff of selected binders
MEASUREMENT_TARGET: T1, human PD-1 (soluble PD-1 protein, R&D Systems) (human, UniProt Q15116 25-170, limits assumed)
T1 construct: the kinetics paragraphs say only 'PD-1' / 'antigen'; also called hPD-1; soluble PD-1 immunogen
T1 sequence (Q15116 25-170 limits assumed): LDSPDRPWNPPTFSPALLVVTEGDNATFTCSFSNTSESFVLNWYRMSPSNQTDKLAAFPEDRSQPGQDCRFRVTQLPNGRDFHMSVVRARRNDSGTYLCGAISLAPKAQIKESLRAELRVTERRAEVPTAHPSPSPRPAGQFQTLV
ASSAY_NAME: array SPR (Carterra), mAb captured, PD-1 as analyte
Dear colleague, please return just the value in s⁻¹, with no unit written.

>>> observed_value("A2 (antibody, V domains shown, Tested as full-length mAb expressed in CHO cells; also called antibody A2; L2H2) VH: QVQLVESGGGVVQPGRSLRLSCAASGFTFSSYGMHWVRQAPGKGLEWVALISYDGSNKYYADSVKGRFTISRDNSKNTLYLQMNSLRAEDTAVYYCARGGYFDPYGDYYYGMDVWGQGTTVTVSS VL: DIQMTQSPSSLSASVGDRVTITCRASQAIRNDLGWFQQKPGKAPKRLIYAASSLQSGVPLRFSGSGSGTEFTLTISSLQPEDFATYYCLQHNSFPWTFGQGTKVEIKR")
0.011

// switching to the query binder
koff for A8 (antibody, V domains shown, Tested as full-length mAb expressed in CHO cells; also called antibody A8; L8H8) VH: QVQLVESGGGVVQPGRSLRLSCAASGFTFSSYGMHWVRQAPGKGLEWVAVIWYDGSIKYYADSVKGRFTISRDNSKNTLYLQMNSLRAEDTAVYYCANDILTGSFDYWGQGTLVTVSS VL: EIVLTQSPATLSLSPGERATLSCRASQSVSSYLAWYQQKPGQAPRLLIYDASNRATGIPARFSGSGSGTDFTLTISSLEPEDFAVYYCQQRNTWPYTFGQGTKLEIKR ?
0.035
